Tested on: LP-1 cell line (FGF-1/Heparin induced pERK)
Assay: Cell-based pERK ELISA, LP-1 cells
Conditions: Homo sapiens, LP-1, read-out: LP-1 pERK ELISA (μM)
Counter-ions that a name gives are not always drawn.
Sorting guide: entries reporting IC50 beneath 0.1 µM go in the YES pile, the rest go in the NO pile.

Recorded results for 3 compounds are shown here.
CN1CCC(O)(C#Cc2ccn3c(-c4cccc(NC(=O)NCC(F)(F)F)c4)cnc3c2)CC1 [Example 65, formate] ... NO
Nc1nc(-c2ccn3c(-c4cccc(NC(=O)NC5CC5)c4)cnc3c2)ncc1F ... NO
Nc1ccnc(-c2ccn3c(-c4cccc(NC(=O)NCC(F)(F)F)c4)cnc3c2)n1 ... YES

// query Item Cc1ncc(C#Cc2ccn3c(-c4cccc(NC(=O)NCC(F)(F)F)c4)cnc3c2)n1C : IC50 beneath 0.1 µM, strictly?
// result YES

// query Item CC(C)(CO)Nc1ccc(-c2ccn3c(-c4cccc(NC(=O)NCC(F)(F)F)c4)cnc3c2)nn1 [Example 81, hydrochloride] : IC50 beneath 0.1 µM, strictly?
// result YES

// query Item O=C1CN(c2ncc(-c3ccn4c(-c5cccc(NC(=O)NCC(F)(F)F)c5)cnc4c3)cn2)CCN1 [Example 94, hydrochloride] : IC50 beneath 0.1 µM, strictly?
// result NO

// query Item CS(=O)(=O)N1CCC(n2cc(-c3ccn4c(-c5cccc(NC(=O)NCC(F)(F)F)c5)cnc4c3)cn2)CC1 : IC50 beneath 0.1 µM, strictly?
// result YES

// query Item NC(=O)c1sccc1-c1ccn2c(-c3cccc(NC(=O)NCC(F)(F)F)c3)cnc2c1 [Example 43, hydrochloride] : IC50 beneath 0.1 µM, strictly?
// result NO
